Please respond with reported MIC90 for every item in the list.
Test system: Escherichia coli
Assay: microbe, parasite or virus in culture
Format: functional
Settings: isolate CAN-ICU 63074, 24 h
Description: Antibacterial activity against Escherichia coli isolate CAN-ICU 63074 after 24 hrs by macrobroth dilution method in the presence of bovine serum albumin
Answers are plain numbers, in µg/mL.

# COMPOUND_STRUCTURE_STRING, TARGET_OR_SYSTEM, MIC90 (µg/mL)
data = [
    ("Cc1cc(OCCCCc2cn(C[C@H]3O[C@@H](O[C@@H]4[C@@H](O)[C@H](N)C[C@H](N)[C@H]4O[C@H]4O[C@H](CN)[C@@H](O)[C@H](O)[C@H]4N)[C@H](O)[C@@H]3O[C@H]3O[C@@H](CN)[C@@H](O)[C@H](O)[C@H]3N)nn2)cc(C)c1Cl", "Escherichia coli", 128),
]

Next compound, please.
Reported MIC90 ( Cc1cc(OCc2cn(C[C@H]3O[C@@H](O[C@@H]4[C@@H](O)[C@H](N)C[C@H](N)[C@H]4O[C@H]4O[C@H](CN)[C@@H](O)[C@H](O)[C@H]4N)[C@H](O)[C@@H]3O[C@H]3O[C@@H](CN)[C@@H](O)[C@H](O)[C@H]3N)nn2)cc(C)c1Cl ) = 128

Hello, the source for this data is ChEMBL document CHEMBL1949655, in case you need it.
